Attribution: patent US10363239B2

The following compounds are shown together with reported inhibition at 0.1 µM values.
target: FLNA pentapeptide of SEQ ID NO: 1 (Bn-VAKGL) (Homo sapiens); assay: FITC-NLX-based FLNA screening assay (inhibition of FITC-naloxone binding to Bn-VAKGL on streptavidin plates); details: read-out: Percent Binding Inhibition, FLNA-binding compound 0.1 μM; 10 nM FITC-NLX
Your answer is read as %, so omit the unit and give the number.

Sample answers from the record:
> print(dat)
                                   compound                             target.entity  experimental.endpoint  value.reported
1  COc1cc(C(=O)CC2c3c(cc4c(c3OC)OCO4)CC[N+]2(C)C)cc(OC)c1OC (stereo not shown) [Compound B0037]  FLNA pentapeptide of SEQ ID NO: 1 (Bn-VAKGL) (Homo sapiens)   inhibition at 0.1 µM              53
2  CC(=O)c1ccc(S(=O)(=O)N2CCC3(CC2)OCCN3S(=O)(=O)c2ccc(C(C)=O)cc2)cc1 [Compound C0011]  FLNA pentapeptide of SEQ ID NO: 1 (Bn-VAKGL) (Homo sapiens)   inhibition at 0.1 µM            41.4
3  O=C1CN(Cc2ccccc2)C2(CCN(CC3CC3)CC2)N1 [Compound C0125M]  FLNA pentapeptide of SEQ ID NO: 1 (Bn-VAKGL) (Homo sapiens)   inhibition at 0.1 µM            59.7
4  CC(=O)c1ccc(S(=O)(=O)N2CC(=O)NC23CCNCC3)cc1 [Compound C0086M]  FLNA pentapeptide of SEQ ID NO: 1 (Bn-VAKGL) (Homo sapiens)   inhibition at 0.1 µM            48.1
5  CC(=O)c1ccc(S(=O)(=O)N2CCC3(CC2)NC(=O)CN3S(=O)(=O)c2ccc(C(C)=O)cc2)cc1 [Compound C0064]  FLNA pentapeptide of SEQ ID NO: 1 (Bn-VAKGL) (Homo sapiens)   inhibition at 0.1 µM            44.4

Next:
Sure, the documented inhibition at 0.1 µM for CC1CCC(C(C)C)C(OCC(O)CN2CCCc3ccccc32)C1 (stereo not shown) [Compound A0068] is 54.2
